Items are presented alongside their recorded combination Emax.
- Test system: JURL-MK1 (Chronic Myelogenous Leukemia)
- EXPERIMENT: combination Emax (second highest fraction inhibited in the dose matrix, 72 h); higher = more inhibition; extreme values may be limits of the assay
QUANTITY_NAME: combination Emax

>>> recorded_value("Cc1c2c(nn1C)CSCc1cc(n(C)n1)CSc1cc(c3ccccc3c1)OCCCc1c(C(=O)O)n(C)c3c-2c(Cl)ccc13 [AZD5991] + Cn1cnc2c(F)c(Nc3ccc(Br)cc3Cl)c(C(=O)NOCCO)cc21 [Selumetinib] (first compound max 1 µM, 7x7, partner max 3 µM)")
0.952
>>> recorded_value("Cc1c2c(nn1C)CSCc1cc(n(C)n1)CSc1cc(c3ccccc3c1)OCCCc1c(C(=O)O)n(C)c3c-2c(Cl)ccc13 [AZD5991] + C1CN(CCC1(C(=O)N[C@@H](CCO)C2=CC=C(C=C2)Cl)N)C3=NC=NC4=C3C=CN4 [Capivasertib] (first compound max 1 µM, 7x7, partner max 3 µM)")
0.729
>>> recorded_value("COc1cccc2c1C(=O)c1c(O)c3c(c(O)c1C2=O)C[C@@](O)(C(=O)CO)C[C@@H]3O[C@H]1C[C@H](N)[C@H](O)[C@H](C)O1 [Doxorubicin] + Cc1cc2ncnn2cc1Nc1ncc2c(n1)n(C1CCOCC1)c(=O)n2C [AZD7648] (first compound max 1 µM, 7x7, partner max 10 µM)")
1
>>> recorded_value("C=CCn1c(=O)c2cnc(Nc3ccc(N4CCN(C)CC4)cc3)nc2n1-c1cccc(C(C)(C)O)n1 [AZD1775] + O=C(c1cc(Cc2n[nH]c(=O)c3ccccc23)ccc1F)N1CCN(C(=O)C2CC2)CC1 [Olaparib] (first compound max 1 µM, partner max 10 µM)")
0.994
>>> recorded_value("Cc1cc2ncnn2cc1Nc1ncc2c(n1)n(C1CCOCC1)c(=O)n2C [AZD7648] + CCN(CCO)CCCOc1ccc2c(Nc3cc(CC(=O)Nc4cccc(F)c4)[nH]n3)ncnc2c1 [AZD2811] (first compound max 10 µM, 7x7, partner max 1 µM)")
0.601

From: the supplement of paper PMC11061612
